B1: IKZF1 (parent)
chain: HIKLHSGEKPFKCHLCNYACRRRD

Variants of: B1
Assay: protein stability index of a GFP-peptide fusion (GPS, HEK-293T) (PSI 1-6); higher = more stable;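 also: lentivirally expressed fusions sorted by FACS into six bins by GFP to DsRed ratio, PSI derived from sequencing read proportions per bin multiplied by bin number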
Details: c terminus: a fixed tail appended
Some variants, each annotated with its measured protein stability index.
MEASUREMENT_TYPE: protein stability index

mutation_name=H1K measurement_type="protein stability index" number=2.09
mutation_name=K3R measurement_type="protein stability index" number=1.88
mutation_name=D24L measurement_type="protein stability index" number=2.01
mutation_name=C20G measurement_type="protein stability index" number=1.96
mutation_name=Y18R measurement_type="protein stability index" number=2.15
mutation_name=E8S measurement_type="protein stability index" number=2.22
mutation_name=H1C measurement_type="protein stability index" number=1.83
mutation_name=C20W measurement_type="protein stability index" number=2.83
mutation_name=F11V measurement_type="protein stability index" number=1.46
mutation_name=C20P measurement_type="protein stability index" number=3.08
mutation_name=K12Q measurement_type="protein stability index" number=2.28
mutation_name=F11R measurement_type="protein stability index" number=1.74
mutation_name=D24V measurement_type="protein stability index" number=2.39
mutation_name=K3A measurement_type="protein stability index" number=1.58
mutation_name=A19I measurement_type="protein stability index" number=2.13
mutation_name=P10N measurement_type="protein stability index" number=2.16
mutation_name=K9S measurement_type="protein stability index" number=2.17
mutation_name=H5T measurement_type="protein stability index" number=1.48
mutation_name=K12I measurement_type="protein stability index" number=1.78
mutation_name=E8M measurement_type="protein stability index" number=1.63
mutation_name=H14P measurement_type="protein stability index" number=1.83
mutation_name=C20R measurement_type="protein stability index" number=1.96
mutation_name=K9C measurement_type="protein stability index" number=2.79
mutation_name=R23K measurement_type="protein stability index" number=2.26
mutation_name=I2Y measurement_type="protein stability index" number=1.93
mutation_name=K3D measurement_type="protein stability index" number=1.95
mutation_name=C16N measurement_type="protein stability index" number=2.8
mutation_name=C16G measurement_type="protein stability index" number=3.03
mutation_name=K12C measurement_type="protein stability index" number=2.32
mutation_name=G7I measurement_type="protein stability index" number=1.68
mutation_name=L15R measurement_type="protein stability index" number=2.3
mutation_name=H1Q measurement_type="protein stability index" number=1.26
mutation_name=P10C measurement_type="protein stability index" number=1.76
mutation_name=L15Y measurement_type="protein stability index" number=1.63
mutation_name=L15C measurement_type="protein stability index" number=2.66
mutation_name=S6H measurement_type="protein stability index" number=1.96
mutation_name=P10T measurement_type="protein stability index" number=1.84
